System: CCRF-CEM leukemia
Assay: NCI-60 one-dose screen, 48 h (100 = growth as untreated, 0 = no growth, -100 = all killed)
Conditions: 10 µM unless noted
The panel holds about 83,000 compounds, 20% with a hit somewhere; the sample as a whole holds those more often.
Label Met when growth is at or above 40%; otherwise label Not met.

[
  {
    "Molecule": "CCC(=O)Nc1cc(Nc2cc(NC3CC3)n3ncc(C#N)c3n2)ccc1C",
    "Label class": "Not met"
  },
  {
    "Molecule": "Oc1ccc(-c2nnc(SCc3ccc(O)c4ncccc34)o2)cc1",
    "Label class": "Not met"
  },
  {
    "Molecule": "CN1CCN(c2ccc3c(C(N)=O)c(NC(=O)c4ccc(C(C)(C)C)cc4)sc3c2)CC1",
    "Label class": "Met"
  },
  {
    "Molecule": "Cc1ccc(/C=C/CC(=O)Nc2ccc(C(=O)Nc3ccc(F)cc3N)nc2)cn1",
    "Label class": "Not met"
  },
  {
    "Molecule": "CC(=O)C1=NN(c2ccc(Cl)cc2)C(=O)CN1C",
    "Label class": "Met"
  },
  {
    "Molecule": "C/C(Cc1ccc(Cl)cc1)=C(/c1ccccc1)c1ccc(OCCN)cc1",
    "Label class": "Met"
  },
  {
    "Molecule": "O=c1[nH]c(CCl)nc2c1cnn2-c1ccccc1",
    "Label class": "Met"
  },
  {
    "Molecule": "CCOC(=O)c1c(Nc2ccccc2)nn2c(-c3ccc(OC)c(OC)c3)ccnc12",
    "Label class": "Not met"
  },
  {
    "Molecule": "C/C(=N/Nc1nc(N/N=C(/C)c2ccc([N+](=O)[O-])cc2)nc(N2CCOCC2)n1)c1ccc([N+](=O)[O-])cc1",
    "Label class": "Met"
  },
  {
    "Molecule": "Oc1ccc(CSc2nnc(-c3ccncc3)n2-c2ccccc2)c2cccnc12",
    "Label class": "Not met"
  },
  {
    "Molecule": "COc1ccc(Oc2ccc(C3CC(c4cc(OC)c(OC)c(OC)c4)=NN3C(C)=O)cc2)cc1 (stereo unspecified)",
    "Label class": "Not met"
  }
]
